system: ACVR2A; conditions: concentration: 1 μM, replicates: in singlicate; n = 1;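 note: KINOMEscan kinase panel screen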
RECORDED_ENDPOINT: %Inh (%)

MOL | OBSERVED
c1ccc(-c2cnc3nccnn23)cc1 | 0
COc1ccc(Nc2nccc(NCCNC(=O)c3cc4ccccc4s3)n2)cc1 | 0
Cc1occc1-c1ncc(OC[C@@H](N)Cc2c[nH]c3ccccc23)cc1-c1ccc2[nH]nc(C)c2c1.O=C(O)C(F)(F)F | 0
C[C@@H]1CC[C@@H](C(=O)Nc2ccccc2)CN1c1cc(-c2ccc3c(N)n[nH]c3c2)nc(N)n1 | 0
O=C(Nc1cccc(-c2nn3ncccc3c2-c2ccnc(Nc3ccccc3)n2)c1)c1c(F)cccc1F | 0
Cn1cc(-c2ccc3c(c2)CCN3C(=O)Cc2cccc(Cl)c2)c2c(N)ncnc21 | 0
COc1cccc(C(=O)Nc2cccc(Oc3ccc4nc(NC(=O)C5CC5)cn4n3)c2)c1 | 1
Cc1ccc(C(=O)N2CC[C@@H](O)C2)cc1-n1c(C)cc(OCc2ccc(F)cc2F)c(Br)c1=O | 31
O=c1[nH]cc(-c2ccc(N3CCOCC3)cc2)c2sc(-c3cn[nH]c3)cc12 | 2
Cc1cccc(NC(=O)Nc2ccc(Oc3ncnc4ccn(C)c34)cc2)c1 | 2
